Values were extracted from ChEMBL document CHEMBL4007389.

System: Indoleamine 2,3-dioxygenase 1 (Homo sapiens), P14902 [S167A]
Sequence (P14902 whole entry S167A): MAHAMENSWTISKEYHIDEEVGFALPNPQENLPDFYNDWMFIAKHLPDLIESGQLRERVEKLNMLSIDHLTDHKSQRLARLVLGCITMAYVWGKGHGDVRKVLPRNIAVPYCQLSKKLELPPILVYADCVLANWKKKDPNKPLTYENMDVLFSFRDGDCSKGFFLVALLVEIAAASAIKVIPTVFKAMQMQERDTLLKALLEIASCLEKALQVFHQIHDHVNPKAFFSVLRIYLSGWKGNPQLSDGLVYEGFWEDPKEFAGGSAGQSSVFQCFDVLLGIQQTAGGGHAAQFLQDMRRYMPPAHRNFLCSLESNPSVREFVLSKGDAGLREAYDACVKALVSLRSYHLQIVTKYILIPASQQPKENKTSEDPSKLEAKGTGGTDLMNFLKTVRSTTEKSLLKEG
run description: Inhibition of recombinant human IDO1 S167A mutant expressed in Escherichia coli SG13009(pREP4) at 20 uM using L-Tryptophan as substrate after 25 mins by fluorescence assay relative to control
reported metric: inhibition
# output: numeric value plus its unit

Here are 2 molecules together with their reported answers.
INSERT INTO assay_data (sample_smiles, readout_value) VALUES
  ('Cc1cccc2c1c1ccc3c(c1n2C)C(=O)C=CC3=O', '-5%'),
  ('COc1c(NC(C)=O)c2ccccc2c2ccccc12', '-9%');

I would be grateful if you could provide inhibition for each of the following entries.
1. COc1ccc2c(c1)c1ccc3c(c1n2C)C(=O)C=CC3=O
2. CCn1c2ccccc2nc2cc3c(cc21)c(Cl)c(=O)c1ccccc13
3. Cn1c2ccccc2c2ccc3c(c21)C(=O)C=CC3=O

(A)
1. -5%
2. 2%
3. -2%

====

run description: Cytotoxicity against mouse LLTC cells assessed as reduction in cell viability after 24 hrs by MTT assay
Format: cell-based
applied conditions: read-out: LC50
reported metric: log10 CC50 at 24 h (log10 of the value in µM)
Please note: log10 values; quantity CC50 at 24 h; unit µM.

INSERT INTO measurements (compound, reported_metric, readout_value) VALUES
  ('COc1cc2c(cc1OC)[N+]([O-])=C(c1ccccc1)C2=O', 'log10 CC50 at 24 h', 1.40);

Respectfully, I request log10 CC50 at 24 h for each entry included below.
1. Cc1ccccc1C1=[N+]([O-])c2ccccc2C1=O
2. COc1ccc(C2=[N+]([O-])c3ccccc3C2=O)cc1
3. Clc1ccc(SCNc2ccccc2Cl)cc1
4. O=C1C(c2ccccc2)=Nc2ccccc21
5. Sc1ccc(Cl)cc1
6. O=[N+]([O-])c1ccc(NCSc2ccc(Cl)cc2)cc1

(A)
1: 1.08; 2: 1.62; 3: 1.60; 4: 2.34; 5: 1.54; 6: 1.60

(Q) Give a short answer stating reported log10 CC50 at 24 h for Cc1ccc([S+]([O-])c2ccc([N+](=O)[O-])c3nonc23)cc1 (configuration not stated) .
(A) 1.46

====

tested on: Indoleamine 2,3-dioxygenase 1 (Homo sapiens, UniProt P14902)
Sequence (P14902 whole entry): as the sequence (P14902 whole entry S167A) above, with A167S counted along it
run description: Inhibition of recombinant human IDO1 expressed in bacterial expression system using L-Tryptophan as substrate after 25 mins in absence of GSH and tween20 by fluorescence assay
reported metric: pIC50
Numbers only, as −log10 of the molar value.

INSERT INTO assay_data (molecule, tested_on, reported_metric, readout_value) VALUES
  ('COc1cc2c(cc1OC)[N+]([O-])=C(c1ccccc1)C2=O', 'Indoleamine 2,3-dioxygenase 1 (Homo sapiens, UniProt P14902)', 'pIC50', 5.03),
  ('Oc1ccccc1-c1nc2c3ccccc3c3ccccc3c2[nH]1', 'Indoleamine 2,3-dioxygenase 1 (Homo sapiens, UniProt P14902)', 'pIC50', 5.11),
  ('Clc1ccc(SCNc2ccccc2Cl)cc1', 'Indoleamine 2,3-dioxygenase 1 (Homo sapiens, UniProt P14902)', 'pIC50', 5.26),
  ('Cc1ccc([S+]([O-])c2ccc([N+](=O)[O-])c3nonc23)cc1 (stereo not given)', 'Indoleamine 2,3-dioxygenase 1 (Homo sapiens, UniProt P14902)', 'pIC50', 4.85);

(Q) Please list pIC50 recorded for the molecule Oc1nccc(SCc2ccc(Cl)cc2Cl)n1
(A) 5.37
